Where do the numbers come from? From paper PMC10485003.

molecular target: wt-ALHH DrIleRS2 (Deinococcus radiodurans, UniProt Q9RUP8); construct: hexa-histidine tag (pET28b(+)) (N); made in house; host or cells: E. coli BL21(DE3); experiment: ATP-PPi exchange assay, mupirocin inhibition of amino acid activation; format: biochemical; conditions: amino acid activation step; ATP/PPi exchange assay; Ile varied, ATP saturating; average ± SD of three independent experiments; read-out: KI (MUP)Ile
Sequence (Q9RUP8 whole entry): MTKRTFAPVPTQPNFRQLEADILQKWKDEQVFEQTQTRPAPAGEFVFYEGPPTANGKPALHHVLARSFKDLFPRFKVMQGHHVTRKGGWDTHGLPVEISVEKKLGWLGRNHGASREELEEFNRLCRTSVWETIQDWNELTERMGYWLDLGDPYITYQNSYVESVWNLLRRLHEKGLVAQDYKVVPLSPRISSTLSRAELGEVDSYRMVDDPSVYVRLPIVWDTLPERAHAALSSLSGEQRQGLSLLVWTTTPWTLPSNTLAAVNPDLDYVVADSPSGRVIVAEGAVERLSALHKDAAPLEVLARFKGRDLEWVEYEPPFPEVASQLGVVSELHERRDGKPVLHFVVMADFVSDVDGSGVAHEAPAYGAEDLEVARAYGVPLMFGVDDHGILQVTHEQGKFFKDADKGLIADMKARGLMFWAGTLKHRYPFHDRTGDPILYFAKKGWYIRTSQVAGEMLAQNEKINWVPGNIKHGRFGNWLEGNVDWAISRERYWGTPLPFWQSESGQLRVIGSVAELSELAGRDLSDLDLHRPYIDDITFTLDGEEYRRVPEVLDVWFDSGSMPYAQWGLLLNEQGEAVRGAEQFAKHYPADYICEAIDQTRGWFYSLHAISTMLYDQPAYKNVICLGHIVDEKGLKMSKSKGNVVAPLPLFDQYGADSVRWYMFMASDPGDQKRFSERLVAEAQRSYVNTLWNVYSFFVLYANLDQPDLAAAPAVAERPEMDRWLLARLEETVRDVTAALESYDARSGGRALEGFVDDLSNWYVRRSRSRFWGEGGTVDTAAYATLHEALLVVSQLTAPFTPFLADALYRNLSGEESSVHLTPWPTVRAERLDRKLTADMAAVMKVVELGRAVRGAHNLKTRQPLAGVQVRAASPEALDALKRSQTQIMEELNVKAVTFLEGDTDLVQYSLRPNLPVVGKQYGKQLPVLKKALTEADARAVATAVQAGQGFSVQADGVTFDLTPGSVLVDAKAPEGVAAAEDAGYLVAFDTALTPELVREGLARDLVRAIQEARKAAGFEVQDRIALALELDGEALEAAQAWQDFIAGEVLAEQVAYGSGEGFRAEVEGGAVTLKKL
REPORTED_METRIC: pKi
Numbers only, as −log10 of the molar value.

[ask] Fill in the recorded pKi for this compound, with wt-ALHH DrIleRS2 (Deinococcus radiodurans, UniProt Q9RUP8) as test system: `C/C(=C\C(=O)OCCCCCCCCC(=O)O)C[C@@H]1OC[C@H](C[C@@H]2O[C@H]2[C@@H](C)[C@H](C)O)[C@@H](O)[C@H]1O`
[reply] 2.18
